Reported melting point values are given for each entry in this list.

> print(dat)
                                   compound  experimental.value
1  O=C(N/N=C/c1c(O)cc(C(F)(F)F)cc1C(F)(F)F)c1ccccc1 [Example 276]       144 to 193 °C
2  COc1ccc(/C(C)=N/NC(=O)c2ccc(C)cc2)c(O)c1 [Example 283]       206 to 207 °C
3  O=C(N/N=C/c1cc(Cl)cc(Br)c1O)c1ccc(OC(F)(F)F)cc1 [Example 106]       210 to 220 °C
4  O=C(N/N=C/c1ccc(Cl)c(Cl)c1O)c1cccc(F)c1 [Example 356]       215 to 218 °C
5  C/C(=N\NC(=O)c1ccc(C(F)(F)F)cc1)c1cccc(Cl)c1O [Example 501]       250 to 256 °C
6  O=C(N/N=C/c1cc(Cl)cc(Cl)c1O)c1cc(Br)ccc1Cl [Example 98]       191 to 192 °C

What value of melting point has been reported for the following compound? O=C(N/N=C/c1cc(C(F)(F)F)cc(Cl)c1O)c1cccc(Cl)c1 [Example 325]
210 to 212 °C

What value of melting point has been reported for the following compound? C/C(=N\NC(=O)c1ccc(C(F)(F)F)cc1)c1ccc(Cl)cc1O [Example 461]
244 to 245 °C

What value of melting point has been reported for the following compound? C/C(=N\NC(=O)c1ccc(C)cc1)c1cccc(Cl)c1O [Example 495]
195 to 200 °C

###

Counter-ions that a name gives are not always drawn.
Endpoint Label: melting point

Solved entries (count: 5):
> print(dat)
                                   molecule  endpoint.label  experimental.value
1  COc1ccc(O)c(/C(C)=N/NC(=O)c2ccc(Cl)cc2)c1   melting point       193 to 196 °C
2       C/C(=N\NC(=O)c1ccc(C)cc1C)c1ccccc1O   melting point       188 to 190 °C
3  Cc1ccc(C(=O)N/N=C/c2cc(Cl)cc(C(F)(F)F)c2O)cc1   melting point       276 to 278 °C
4     COc1cccc(/C(C)=N/NC(=O)c2ccccc2Br)c1O   melting point       245 to 247 °C
5    COc1ccc(O)c(/C(C)=N/NC(=O)c2ccccc2C)c1   melting point       146 to 155 °C

Here is the next item to consider.
What value of melting point has been reported for the following molecule? C/C(=N\NC(=O)c1ccccc1O)c1cc(C(F)(F)F)ccc1O (as salt: Na)
277 to 297 °C

###

# System: Leptosphaeria nodorum (LEPTNO)
# Protocol Summary: In vitro fungitoxicity of hydrazones with and without copper towards Leptosphaeria nodorum (Example 26)
# Format: cell-based
# Cond: copper-plus medium (CuCl2 10 μM); test compound Concn. 0.05 μg/mL; 72 h at 25° C.
Endpoint Label: LEPTNO % Inhn. Plus Copper Observed (%)
Expressed in %, but write only the number.

Solved entries (count: 5):
> print(dat)
                                smiles.repr                       endpoint.label  measurement.units  experimental.value
1  O=C(N/N=C/c1c(O)cccc1Cl)c1cccc([N+](=O)[O-])c1  LEPTNO % Inhn. Plus Copper Observed                  %                94.9
2  Cc1cccc(C(=O)N/N=C/c2cccc(C(F)(F)F)c2O)c1  LEPTNO % Inhn. Plus Copper Observed                  %                95.4
3  C/C(=N\NC(=O)c1cc2ccccc2cc1O)c1cc(Cl)cc(Cl)c1O  LEPTNO % Inhn. Plus Copper Observed                  %                94.2
4  Cc1ccc(C(=O)N/N=C/c2cc(Cl)cc(C(F)(F)F)c2O)cc1  LEPTNO % Inhn. Plus Copper Observed                  %                97.6
5  O=C(N/N=C/c1cc(Cl)cc(Br)c1O)c1ccc([N+](=O)[O-])cc1  LEPTNO % Inhn. Plus Copper Observed                  %                98.2

What value of LEPTNO % Inhn. Plus Copper Observed has been reported for the following compound? "O=C(N/N=C/c1cc(Br)cc(F)c1O)c1ccccc1"
97.6

What value of LEPTNO % Inhn. Plus Copper Observed has been reported for the following compound? "C/C(=N\NC(=O)c1ccccc1Br)c1cccc(Cl)c1O"
97.2

What value of LEPTNO % Inhn. Plus Copper Observed has been reported for the following compound? "C/C(=N\NC(=O)c1ccc(Cl)cc1)c1cc(Cl)ccc1O"
95.5

What value of LEPTNO % Inhn. Plus Copper Observed has been reported for the following compound? "O=C(N/N=C/c1cc(C(F)(F)F)cc(Cl)c1O)c1cccc(Cl)c1"
95.7
